- Target entity: PRKACA (human)
- Experiment description: KINOMEscan competition binding
- Stated conditions: compound 10.0 µM
Listed molecules paired with reported kinase still bound, per cent of control
Endpoint: kinase still bound, per cent of control (%)

molecule=COc1cc2ncnc(Nc3cccc(Cl)c3)c2cc1OC endpoint="kinase still bound, per cent of control" unit_symbol=% quantitative_result=94
molecule=N#Cc1cc(-c2ccnc(Nc3ccc(-n4cnc(-c5cccnc5)n4)cc3)n2)cc(N2CCOCC2)c1 endpoint="kinase still bound, per cent of control" unit_symbol=% quantitative_result=89
molecule=N#C/C(=C1/Nc2ccccc2S1)c1ccnc(NCCc2cccnc2)n1 endpoint="kinase still bound, per cent of control" unit_symbol=% quantitative_result=100
molecule=COc1cc2c(Nc3ccc(NC(=O)c4ccccc4)cc3)ncnc2cc1OCCCN1CCOCC1 endpoint="kinase still bound, per cent of control" unit_symbol=% quantitative_result=100
molecule=CCN(CCO)CCCOc1ccc2c(Nc3cc(CC(=O)Nc4cccc(F)c4)[nH]n3)ncnc2c1 endpoint="kinase still bound, per cent of control" unit_symbol=% quantitative_result=100
molecule=CCOc1cc(N2CCC(O)CC2)ccc1Nc1ncc2c(n1)N(C)c1ccccc1C(=O)N2C endpoint="kinase still bound, per cent of control" unit_symbol=% quantitative_result=100
molecule=COc1ccc(N(C(=O)Oc2cc(C(=O)Nc3cccc(C(F)(F)F)c3)ccc2C)c2ccnc(Nc3ccc(N4CCN(C)CC4)cc3)n2)c(OC)c1 endpoint="kinase still bound, per cent of control" unit_symbol=% quantitative_result=33
molecule="COc1cc(C)c(Sc2cnc(NC(=O)c3ccc(CNC(C)C(C)C)cc3)s2)cc1C(=O)N1CCN(C(C)=O)CC1 (configuration not stated)" endpoint="kinase still bound, per cent of control" unit_symbol=% quantitative_result=100
molecule=Cc1cn(-c2cc(C(=O)Nc3ccc(C)c(NC(=O)c4ccno4)c3)cc(C(F)(F)F)c2)cn1 endpoint="kinase still bound, per cent of control" unit_symbol=% quantitative_result=100
molecule=O=c1[nH]c2ccccc2n1C1CCN(Cc2ccc(-c3nc4cc5[nH]cnc5cc4nc3-c3ccccc3)cc2)CC1 endpoint="kinase still bound, per cent of control" unit_symbol=% quantitative_result=100
molecule=CCCS(=O)(=O)Nc1ccc(F)c(C(=O)c2c[nH]c3ncc(Cl)cc23)c1F endpoint="kinase still bound, per cent of control" unit_symbol=% quantitative_result=94
molecule=CCN1CCN(Cc2ccc(NC(=O)c3ccc(C)c(/C=C/c4cnc5[nH]ccc5c4OC)c3)cc2C(F)(F)F)CC1 endpoint="kinase still bound, per cent of control" unit_symbol=% quantitative_result=100
molecule=CNC(=O)Nc1ccc(-c2nc(N3CC4CCC(C3)O4)c3cnn(C4CCC5(CC4)OCCO5)c3n2)cc1 endpoint="kinase still bound, per cent of control" unit_symbol=% quantitative_result=75
molecule=CC(=O)c1c(C)c2cnc(Nc3ccc(N4CCNCC4)cn3)nc2n(C2CCCC2)c1=O endpoint="kinase still bound, per cent of control" unit_symbol=% quantitative_result=100
molecule=C=CC(=O)Nc1ccc(C(=O)c2sc(Nc3ccc(N4CCN(C)CC4)cc3OC)nc2N)cc1 endpoint="kinase still bound, per cent of control" unit_symbol=% quantitative_result=100
molecule=CCc1nc(-c2cccc(C)c2)c(-c2ccnc(NC(=O)c3ccccc3)c2)s1 endpoint="kinase still bound, per cent of control" unit_symbol=% quantitative_result=85
molecule=COc1cc(N2CCC(C(N)=O)CC2)ccc1Nc1nc(N)c(Cl)c(Nc2ccccc2S(=O)(=O)C(C)C)n1 endpoint="kinase still bound, per cent of control" unit_symbol=% quantitative_result=100

---

- Test system: ABL1 (human), P00519 [F317L]
- Sequence (P00519 whole entry F317L, looked up): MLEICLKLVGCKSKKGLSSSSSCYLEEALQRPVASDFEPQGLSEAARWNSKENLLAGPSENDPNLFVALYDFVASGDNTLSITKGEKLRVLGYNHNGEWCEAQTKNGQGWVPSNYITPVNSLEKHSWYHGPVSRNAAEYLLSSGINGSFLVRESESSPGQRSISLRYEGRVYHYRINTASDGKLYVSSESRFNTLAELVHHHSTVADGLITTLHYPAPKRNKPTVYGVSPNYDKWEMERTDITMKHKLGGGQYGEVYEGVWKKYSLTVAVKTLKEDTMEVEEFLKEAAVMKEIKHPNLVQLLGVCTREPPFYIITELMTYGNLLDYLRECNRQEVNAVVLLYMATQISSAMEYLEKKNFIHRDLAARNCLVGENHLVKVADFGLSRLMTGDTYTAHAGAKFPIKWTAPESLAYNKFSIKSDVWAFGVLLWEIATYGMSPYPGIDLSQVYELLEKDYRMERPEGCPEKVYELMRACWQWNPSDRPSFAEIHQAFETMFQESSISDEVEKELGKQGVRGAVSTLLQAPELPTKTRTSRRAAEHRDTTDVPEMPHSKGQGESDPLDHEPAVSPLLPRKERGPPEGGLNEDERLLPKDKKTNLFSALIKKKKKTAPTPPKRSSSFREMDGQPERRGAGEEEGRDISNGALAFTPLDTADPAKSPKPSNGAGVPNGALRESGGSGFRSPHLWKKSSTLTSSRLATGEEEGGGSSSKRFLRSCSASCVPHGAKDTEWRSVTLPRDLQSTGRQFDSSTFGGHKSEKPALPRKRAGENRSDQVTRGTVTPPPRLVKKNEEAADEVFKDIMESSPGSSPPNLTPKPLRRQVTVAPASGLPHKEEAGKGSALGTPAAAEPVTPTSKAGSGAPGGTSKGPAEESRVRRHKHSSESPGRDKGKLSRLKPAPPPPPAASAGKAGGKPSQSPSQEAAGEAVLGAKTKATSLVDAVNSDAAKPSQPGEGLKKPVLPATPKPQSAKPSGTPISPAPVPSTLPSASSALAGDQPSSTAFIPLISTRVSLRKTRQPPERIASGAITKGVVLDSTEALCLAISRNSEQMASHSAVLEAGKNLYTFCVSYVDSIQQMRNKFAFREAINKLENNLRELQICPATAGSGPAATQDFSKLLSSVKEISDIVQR
- Experiment description: KINOMEscan competition binding
- Stated conditions: compound 10.0 µM
Listed compounds paired with reported kinase still bound, per cent of control
Endpoint: kinase still bound, per cent of control (%)

compound=Cc1ccc(C(=O)Nc2cccc(C(F)(F)F)c2)cc1Nc1cncc(C(N)=O)c1 quantitative_result=22
compound="COc1cc(C)c(Sc2cnc(NC(=O)c3ccc(CNC(C)C(C)C)cc3)s2)cc1C(=O)N1CCN(C(C)=O)CC1 (configuration not stated)" quantitative_result=100
compound=CCN(CC)CCCCNc1ncc2c(n1)N(C)C(=O)N(c1c(Cl)c(OC)cc(OC)c1Cl)C2 quantitative_result=100
compound=C=CC(=O)Nc1cccc(Oc2nc(Nc3ccc(N4CCN(C)CC4)cc3OC)ncc2Cl)c1 quantitative_result=100
compound="COc1cc(C(=O)NC2CCN(C)CC2)ccc1Nc1ncc2c(n1)N(C1CCCC1)C(C)CC(=O)N2C (configuration not stated)" quantitative_result=100
compound=Cc1n[nH]c2ccc(-c3cncc(OC[C@@H](N)Cc4c[nH]c5ccccc45)c3)cc12 quantitative_result=100
compound=Cn1c(=O)n(-c2ccc(C(C)(C)C#N)cc2)c2c3cc(-c4cnc5ccccc5c4)ccc3ncc21 quantitative_result=100
compound=CCOc1cc(N2CCC(O)CC2)ccc1Nc1ncc2c(n1)N(C)c1ccccc1C(=O)N2C quantitative_result=100
compound=CCOc1cc2ncc(C#N)c(Nc3ccc(OCc4ccccn4)c(Cl)c3)c2cc1NC(=O)/C=C/CN(C)C quantitative_result=100
compound=COc1cc(N2CCC(C(N)=O)CC2)ccc1Nc1nc(N)c(Cl)c(Nc2ccccc2S(=O)(=O)C(C)C)n1 quantitative_result=12
compound=OCCCNc1cc(-c2ccnc(Nc3cccc(Cl)c3)n2)ccn1 quantitative_result=100
compound=CCC(=O)N1CCN(c2ccc(-n3c(=O)ccc4cnc5ccc(-c6cnc7ccccc7c6)cc5c43)cc2C(F)(F)F)CC1 quantitative_result=100

---

- Tested on: EGFR (human), P00533 [L858R]
- Experiment description: KINOMEscan competition binding
- Stated conditions: compound 10.0 µM
We label by threshold. Values of kinase still bound, per cent of control strictly beneath 70% are true. Values of 70% and up are false.

compound_string=NC(=O)Nc1cc(-c2cccc(F)c2)sc1C(=O)N[C@@H]1CCCNC1 assigned_category=true
compound_string=O=C1Nc2ccc(I)cc2/C1=C/c1cc(Br)c(O)c(Br)c1 assigned_category=true
compound_string=CCN1CCN(Cc2ccc(Nc3ncc4c(n3)N(C)c3ccccc3C(=O)N4C)cc2C(F)(F)F)CC1 assigned_category=false
compound_string=COc1cc(N2CCN(C)CC2)ccc1Nc1nc(N)c(C(=O)c2c(Cl)cccc2Cl)s1 assigned_category=false
compound_string=COc1cc2ncn(-c3cc(OCc4ccccc4C(F)(F)F)c(C(N)=O)s3)c2cc1OC assigned_category=true

---

Listed compounds paired with reported kinase still bound, per cent of control
- Target entity: PIK3CA (human)
- Experiment description: KINOMEscan competition binding
- Stated conditions: compound 10.0 µM
Endpoint: kinase still bound, per cent of control (%)

compound="CC1=C(C(=O)Nc2cc3cn[nH]c3cc2F)C(c2ccc(C(F)(F)F)cc2)CC(=O)N1 (stereo not drawn)" quantitative_result=80
compound=CC(=O)c1c(C)c2cnc(Nc3ccc(N4CCNCC4)cn3)nc2n(C2CCCC2)c1=O quantitative_result=69
compound="COc1cc(C)c(Sc2cnc(NC(=O)c3ccc(CNC(C)C(C)C)cc3)s2)cc1C(=O)N1CCN(C(C)=O)CC1 (stereo not drawn)" quantitative_result=100
compound=CCCS(=O)(=O)Nc1ccc(F)c(C(=O)c2c[nH]c3ncc(Cl)cc23)c1F quantitative_result=82
compound=COc1cc(N2CCC(C(N)=O)CC2)ccc1Nc1nc(N)c(Cl)c(Nc2ccccc2S(=O)(=O)C(C)C)n1 quantitative_result=100
compound=Cc1cn(-c2cc(C(=O)Nc3ccc(C)c(NC(=O)c4ccno4)c3)cc(C(F)(F)F)c2)cn1 quantitative_result=100
compound=N#C/C(=C1/Nc2ccccc2S1)c1ccnc(NCCc2cccnc2)n1 quantitative_result=100
compound=COc1cc2ncnc(Nc3cccc(Cl)c3)c2cc1OC quantitative_result=76
compound=CCOc1cc(N2CCC(O)CC2)ccc1Nc1ncc2c(n1)N(C)c1ccccc1C(=O)N2C quantitative_result=100
compound=O=c1[nH]c2ccccc2n1C1CCN(Cc2ccc(-c3nc4cc5[nH]cnc5cc4nc3-c3ccccc3)cc2)CC1 quantitative_result=77
compound=CNC(=O)Nc1ccc(-c2nc(N3CC4CCC(C3)O4)c3cnn(C4CCC5(CC4)OCCO5)c3n2)cc1 quantitative_result=16
compound=COc1ccc(N(C(=O)Oc2cc(C(=O)Nc3cccc(C(F)(F)F)c3)ccc2C)c2ccnc(Nc3ccc(N4CCN(C)CC4)cc3)n2)c(OC)c1 quantitative_result=100
compound=CCN1CCN(Cc2ccc(NC(=O)c3ccc(C)c(/C=C/c4cnc5[nH]ccc5c4OC)c3)cc2C(F)(F)F)CC1 quantitative_result=100
compound=C=CC(=O)Nc1ccc(C(=O)c2sc(Nc3ccc(N4CCN(C)CC4)cc3OC)nc2N)cc1 quantitative_result=95
compound=COc1cc2c(Nc3ccc(NC(=O)c4ccccc4)cc3)ncnc2cc1OCCCN1CCOCC1 quantitative_result=100
compound=CCc1nc(-c2cccc(C)c2)c(-c2ccnc(NC(=O)c3ccccc3)c2)s1 quantitative_result=100
compound=N#Cc1cc(-c2ccnc(Nc3ccc(-n4cnc(-c5cccnc5)n4)cc3)n2)cc(N2CCOCC2)c1 quantitative_result=100
compound=CCN(CCO)CCCOc1ccc2c(Nc3cc(CC(=O)Nc4cccc(F)c4)[nH]n3)ncnc2c1 quantitative_result=100
